The measurements presented in this section are drawn from PubChem BioAssay (NCATS).

Molecular target: ATP-dependent DNA helicase Q1 (Homo sapiens) (UniProt P46063)
Sequence (P46063 whole entry, looked up): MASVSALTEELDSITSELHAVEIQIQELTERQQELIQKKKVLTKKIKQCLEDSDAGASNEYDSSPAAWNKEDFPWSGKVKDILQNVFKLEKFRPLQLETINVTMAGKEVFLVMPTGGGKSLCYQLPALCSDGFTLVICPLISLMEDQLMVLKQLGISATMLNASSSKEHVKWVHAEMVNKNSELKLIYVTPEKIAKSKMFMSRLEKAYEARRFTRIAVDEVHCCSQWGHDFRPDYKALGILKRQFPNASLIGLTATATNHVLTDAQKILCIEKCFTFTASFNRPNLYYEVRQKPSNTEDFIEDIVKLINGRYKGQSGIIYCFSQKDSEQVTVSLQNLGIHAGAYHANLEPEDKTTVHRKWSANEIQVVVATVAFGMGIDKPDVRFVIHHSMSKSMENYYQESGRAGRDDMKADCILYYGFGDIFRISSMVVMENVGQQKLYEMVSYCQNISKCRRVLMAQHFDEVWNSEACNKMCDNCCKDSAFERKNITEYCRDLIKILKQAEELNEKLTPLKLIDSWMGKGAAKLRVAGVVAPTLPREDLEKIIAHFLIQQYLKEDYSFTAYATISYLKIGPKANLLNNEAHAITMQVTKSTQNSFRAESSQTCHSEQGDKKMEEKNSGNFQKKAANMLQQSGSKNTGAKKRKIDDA
Experiment: qHTS Validation Assay for Inhibitors of RecQ-Like Dna Helicase 1 (RECQ1) (AID 2353)
Settings: recombinant RECQ1 helicase DNA unwinding assay; series mostly up to 25.6 µM
Activity calls are given as the source filed them. Calls follow the shape of the dose curve; as a rule, active = well fitted inhibition curve with a large enough effect; inconclusive = small, poorly fitted or top-dose-only effect; inactive = flat fitted curve, though single readings scatter.
Hi there, use one of these labels in your reply, thanks! active, inactive

Tell me the assay call for `COC(=O)[C@@H](N)Cc1ccc(O)c(O)c1` please.
inactive

Tell me the assay call for CCCN(CCC)C(=O)C(CCC(=O)O)NC(=O)c1ccccc1 (configuration not stated) please.
inactive

Tell me the assay call for `CCCCNC(=O)NS(=O)(=O)c1ccc(C)cc1` please.
inactive

Tell me the assay call for `CN(C)CCOC(=O)COc1ccc(Cl)cc1` please.
inactive

Tell me the assay call for `CCCCNc1ccc(C(=O)OCCN(C)C)cc1` please.
inactive

Tell me the assay call for `O=C(O)CCCCCCCC(=O)O` please.
inactive

Tell me the assay call for `O=C1NCN(c2ccccc2)C12CCN(CCCC(c1ccc(F)cc1)c1ccc(F)cc1)CC2` please.
inactive

Tell me the assay call for `NC/C=C/C(=O)O` please.
inactive

Tell me the assay call for `C[C@]12C=CC(=O)C=C1CC[C@H]1[C@@H]3C[C@@H](O)[C@](O)(C(=O)CO)[C@@]3(C)C[C@H](O)[C@@]12F` please.
inactive

Tell me the assay call for `COC(=O)[C@H]1[C@H]2C[C@@H]3c4[nH]c5cc(OC)ccc5c4CCN3C[C@H]2C[C@@H](OC(=O)c2cc(OC)c(OC)c(OC)c2)[C@@H]1OC` please.
inactive

Tell me the assay call for COCCOC(=O)C1=C(C)NC(C)=C(C(=O)OC(C)C)C1c1cccc([N+](=O)[O-])c1 (configuration not stated) please.
inactive

Tell me the assay call for `CN(C)C/C=C(/c1ccc(Br)cc1)c1cccnc1` please.
inactive

Tell me the assay call for `CC(=O)[C@]1(O)Cc2c(O)c3c(c(O)c2[C@@H](O[C@H]2C[C@H](N)[C@H](O)[C@H](C)O2)C1)C(=O)c1ccccc1C3=O` please.
active

Tell me the assay call for `CN(C)CC[C@@H](c1ccc(Br)cc1)c1ccccn1` please.
inactive

Tell me the assay call for CC(C(=O)O)c1ccc(CC2CCCC2=O)cc1 (configuration not stated) please.
inactive

Tell me the assay call for `CN(C)CCN(Cc1cccs1)c1ccccn1` please.
inactive

Tell me the assay call for `N[C@@H](COP(=O)(O)O)C(=O)O` please.
inactive

Tell me the assay call for CCCCCN(CCCCC)C(=O)C(CCC(=O)O)NC(=O)c1ccc(Cl)c(Cl)c1 (configuration not stated) please.
inactive

Tell me the assay call for OC(CCN1CCCCC1)(c1ccccc1)C1CCCCC1 (configuration not stated) please.
inactive

Tell me the assay call for CCN(Cc1ccncc1)C(=O)C(CO)c1ccccc1 (configuration not stated) please.
inactive

Tell me the assay call for `O=C(O)CP(=O)(O)O` please.
inactive

Tell me the assay call for `COCCCC/C(=N\OCCN)c1ccc(C(F)(F)F)cc1` please.
inactive

Tell me the assay call for `CNCCCN1c2ccccc2CCc2ccccc21` please.
inactive

Tell me the assay call for `CCN(CC)CCNC(=O)c1cc(S(C)(=O)=O)ccc1OC` please.
inactive

Tell me the assay call for `COCC(=O)O[C@]1(CCN(C)CCCc2nc3ccccc3[nH]2)CCc2cc(F)ccc2[C@@H]1C(C)C` please.
inactive

Tell me the assay call for NS(=O)(=O)c1cc2c(cc1Cl)NC(C1CC3C=CC1C3)NS2(=O)=O (configuration not stated) please.
active

Tell me the assay call for COc1ccc(CCN(C)CCCC(C#N)(c2cc(OC)c(OC)c(OC)c2)C(C)C)cc1OC (configuration not stated) please.
inactive

Tell me the assay call for `O=C(O)CN(CCOCCOCCN(CC(=O)O)CC(=O)O)CC(=O)O` please.
inactive

Tell me the assay call for `C#CCN(C)CCCOc1ccc(Cl)cc1Cl` please.
inactive

Tell me the assay call for `CC1=C(C)C(=O)C(CCCCC#CCCCC#CCO)=C(C)C1=O` please.
inactive

Tell me the assay call for `NC(=O)c1ncn([C@@H]2O[C@H](CO)[C@@H](O)[C@H]2O)c1O` please.
inactive

Tell me the assay call for `NC(N)=N/N=C/c1c(Cl)cccc1Cl` please.
inactive

Tell me the assay call for `Fc1ccc(C(c2ccc(F)cc2)N2CCN(C/C=C/c3ccccc3)CC2)cc1` please.
inactive

Tell me the assay call for `CN=C(NC#N)NCCSCc1nc[nH]c1C` please.
inactive

Tell me the assay call for `CN(C)CCCN1c2ccccc2Sc2ccccc21` please.
inactive

Tell me the assay call for `Cc1nc2ccccn2c(=O)c1CCN1CCC(C(=O)c2ccc(F)cc2)CC1` please.
inactive

Tell me the assay call for `CCCN(CCC)CCc1cccc2c1CC(=O)N2` please.
inactive

Tell me the assay call for `OCCN1CCN(CC/C=C2/c3ccccc3Sc3ccc(C(F)(F)F)cc32)CC1` please.
inactive

Tell me the assay call for `Nc1nc(N)c2nc(-c3ccccc3)c(N)nc2n1` please.
inactive

Tell me the assay call for `CC(=O)Nc1nnc(S(N)(=O)=O)s1` please.
inactive

Tell me the assay call for `CN(C)CCCN1c2ccccc2Sc2ccc(C(F)(F)F)cc21` please.
inactive

Tell me the assay call for `Cc1ccc(=O)n(-c2ccccc2)c1` please.
inactive

Tell me the assay call for `CN1CCN(C2=Nc3ccccc3Oc3ccc(Cl)cc32)CC1` please.
inactive

Tell me the assay call for `CCN(CC)CC(=O)Nc1c(C)cccc1C` please.
inactive

Tell me the assay call for CC(=O)OC(C)C[N+](C)(C)C (configuration not stated) please.
inactive

Tell me the assay call for `C[n+]1cc2c3c(ccc2c2ccc4cc5c(cc4c21)OCO5)OCO3` please.
inactive

Tell me the assay call for `COc1ccc(CN(CCN(C)C)c2ccccn2)cc1` please.
inactive

====

Test: Cell Viability - HUV-EC-C (AID 542);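 also: cells exposed to compound for 40 hours; nearly all actives have a fitted effect of over 35% in size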
Conditions: HUV-EC-C endothelial cell viability, qHTS; series mostly up to 92.2 µM
Results filed as inconclusive are left out. Calls of active or inactive are those of the source. The call rests on the fitted dose curve; in most records, active means well fitted cell-killing curve with a large enough effect; inconclusive means small, poorly fitted or top-dose-only effect, or effect the other way; inactive means flat fitted curve, though single readings scatter.
Hi there, use one of these labels in your reply, thanks! active, inactive

Tell me the assay call for `CN=C(NC#N)NCCSCc1nc[nH]c1C` please.
inactive

Tell me the assay call for `COC(=O)[C@H]1[C@H]2C[C@@H]3c4[nH]c5cc(OC)ccc5c4CCN3C[C@H]2C[C@@H](OC(=O)c2cc(OC)c(OC)c(OC)c2)[C@@H]1OC` please.
active

Tell me the assay call for `NC(=O)N1c2ccccc2C=Cc2ccccc21` please.
inactive

Tell me the assay call for `COc1cc(Cc2cnc(N)nc2N)cc(OC)c1OC` please.
inactive

Tell me the assay call for `CCCCOCCOCCOCc1cc2c(cc1CCC)OCO2` please.
inactive

Tell me the assay call for `O=c1[nH]c(=O)n([C@H]2C[C@H](O)[C@@H](CO)O2)cc1Br` please.
inactive

Tell me the assay call for `Nc1ncn([C@@H]2O[C@H](CO)[C@@H](O)[C@H]2O)c(=O)n1` please.
inactive

Tell me the assay call for `COc1ccc(CN(CCN(C)C)c2ccccn2)cc1` please.
inactive

====

Test system: CRL-7250
Test: Cytotoxic Profiling of Annotated Libraries Using Quantitative High-Throughput Screening (AID 1296008); also: % is scaled to controls: 0 for no effect and ±100 for the full control effect; nearly all actives have a fitted effect of over 60% in size
Conditions: Five cell lines viability, CellTiter-Glo ATP luminescence, 48-72 h; stronger effect = lower value
Inconclusive results are not listed.
parameter measured: max response (%)
Express your answer in %, writing the number without its unit.

get_value(item= `Brc1c(NC2=NCCN2)ccc2nccnc12` , readout=max response) returns -13

get_value(item= CNCCC(Oc1ccccc1OC)c1ccccc1 (stereo not given) , readout=max response) returns -0.295

get_value(item= `NC/C=C/C(=O)O` , readout=max response) returns -5.1

get_value(item= COc1ccc(CCN(C)CCCC(C#N)(c2cc(OC)c(OC)c(OC)c2)C(C)C)cc1OC (stereo not given) , readout=max response) returns -12.1

get_value(item= `CN(C)CC/C=C1\c2ccccc2COc2ccccc21` , readout=max response) returns -15.2

====

Experiment: Cellular Toxicity (caspase-3) SHSY5Y (AID 657);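 also: cells exposed to compound for 16 hours at 37 °C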
Conditions: SH-SY5Y caspase-3 activation, DMSO zero, 10 µM staurosporine = 100%; series mostly up to 91.7 µM
Active and inactive are the calls of the source. Calls follow the shape of the dose curve; as a rule, active = well fitted activation curve with a large enough effect; inconclusive = small, poorly fitted or top-dose-only effect; inactive = flat fitted curve, though single readings scatter.
parameter measured: outcome

>>> reported_measurement("CN=C(NC#N)NCCSCc1nc[nH]c1C")
"inactive"
>>> reported_measurement("Nc1ncn([C@@H]2O[C@H](CO)[C@@H](O)[C@H]2O)c(=O)n1")
"inactive"
>>> reported_measurement("O=c1[nH]c(=O)n([C@H]2C[C@H](O)[C@@H](CO)O2)cc1Br")
"inactive"
>>> reported_measurement("CCCCOCCOCCOCc1cc2c(cc1CCC)OCO2")
"inactive"
>>> reported_measurement("NC(=O)N1c2ccccc2C=Cc2ccccc21")
"inactive"

get_value(item= `COc1ccc(CN(CCN(C)C)c2ccccn2)cc1` , readout=outcome) returns inactive

get_value(item= `CCCCNC(=O)NS(=O)(=O)c1ccc(C)cc1` , readout=outcome) returns inactive

get_value(item= `COc1cc(Cc2cnc(N)nc2N)cc(OC)c1OC` , readout=outcome) returns inactive
